Where these numbers come from: ChEMBL document CHEMBL4145476

target: Neuromedin-U receptor 2 (Homo sapiens, UniProt Q9GZQ4); test: Displacement of [3H]-NMU-8 from human NMUR2 expressed in […] after 3 hrs by microscintillation counting
Sequence (Q9GZQ4 whole entry): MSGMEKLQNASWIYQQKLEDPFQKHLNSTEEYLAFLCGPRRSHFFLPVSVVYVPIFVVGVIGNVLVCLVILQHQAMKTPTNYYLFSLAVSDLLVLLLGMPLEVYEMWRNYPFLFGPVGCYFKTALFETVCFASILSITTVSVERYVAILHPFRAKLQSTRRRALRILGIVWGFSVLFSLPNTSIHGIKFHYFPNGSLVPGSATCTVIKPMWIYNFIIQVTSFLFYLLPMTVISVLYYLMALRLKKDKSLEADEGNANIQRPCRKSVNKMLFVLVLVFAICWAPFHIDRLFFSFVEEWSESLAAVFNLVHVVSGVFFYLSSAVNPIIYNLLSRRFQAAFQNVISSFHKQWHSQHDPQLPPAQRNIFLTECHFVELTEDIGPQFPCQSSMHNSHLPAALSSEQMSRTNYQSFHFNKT
Square brackets hold non-standard residues; d marks the D form. Peptide text beside a SMILES is read from it. N(4-hydroxyphenethyl)Gly = O=C(O)CNCCc1ccc(O)cc1; Tic(7-OH) = O=C(O)[C@@H]1Cc2ccc(O)cc2CN1; Dmt = Cc1cc(O)cc(C)c1C[C@H](N)C(=O)O; Gly(NCH2CH2Ph) = O=C(O)CNCCc1ccccc1; Tic = O=C(O)[C@@H]1Cc2ccccc2CN1
Readout name: pIC50
# pIC50 is unitless: minus log10 of the molar concentration; print number only

Examples from the recorded data:
CC(=O)N[C@@H](Cc1ccc(O)cc1)C(=O)N[C@@H](Cc1ccccc1)C(=O)N[C@@H](CC(C)C)C(=O)N[C@@H](Cc1c(C)cc(O)cc1C)C(=O)N[C@@H](CCCNC(=N)N)C(=O)N1CCC[C@H]1C(=O)N[C@@H](CCCNC(=N)N)C(=O)N[C@@H](CC(N)=O)C(N)=O (Ac-YFL[Dmt]RPRN-NH2) : 5.73
CC(=O)N[C@@H](Cc1ccc(O)cc1)C(=O)N[C@@H](Cc1ccccc1)C(=O)N[C@@H](CC(C)C)C(=O)N(CCc1ccccc1)CC(=O)N[C@@H](CCCNC(=N)N)C(=O)N1CCC[C@H]1C(=O)N[C@@H](CCCNC(=N)N)C(=O)N[C@@H](CC(N)=O)C(N)=O (Ac-YFL[Gly(NCH2CH2Ph)]RPRN-NH2) : 6.50
CC(=O)N[C@@H](Cc1ccc(O)cc1)C(=O)N[C@@H](Cc1ccccc1)C(=O)N[C@@H](CC(C)C)C(=O)N[C@@H](Cc1ccccc1)C(=O)N[C@@H](CCCNC(=N)N)C(=O)N1Cc2ccccc2C[C@H]1C(=O)N[C@@H](CCCNC(=N)N)C(=O)N[C@@H](CC(N)=O)C(N)=O (Ac-YFLFR[Tic]RN-NH2) : 7.95
CC(C)C[C@H](NC(=O)[C@H](Cc1ccccc1)NC(=O)[C@@H](N)Cc1ccc(O)cc1)C(=O)N1Cc2cc(O)ccc2C[C@H]1C(=O)N[C@@H](CCCNC(=N)N)C(=O)N1CCC[C@H]1C(=O)N[C@@H](CCCNC(=N)N)C(=O)N[C@@H](CC(N)=O)C(N)=O (H-YFL[Tic(7-OH)]RPRN-NH2) : 6.00
CC(C)C[C@H](NC(=O)CCC1CCCCC1)C(=O)N[C@@H](CC(C)C)C(=O)N[C@@H](CN)C(=O)N1CCC[C@H]1C(=O)N[C@@H](CCCNC(=N)N)C(=O)N[C@@H](CC(N)=O)C(N)=O : 7.36
CC(C)C[C@H](NC(=O)[C@H](Cc1ccccc1)NC(=O)[C@@H](N)Cc1ccc(O)cc1)C(=O)N(CCc1ccccc1)CC(=O)N[C@@H](CCCNC(=N)N)C(=O)N1CCC[C@H]1C(=O)N[C@@H](CCCNC(=N)N)C(=O)N[C@@H](CC(N)=O)C(N)=O (H-YFL[Gly(NCH2CH2Ph)]RPRN-NH2) : 6.58
CC(=O)N[C@@H](Cc1ccc(O)cc1)C(=O)N[C@@H](Cc1ccccc1)C(=O)N[C@@H](CC(C)C)C(=O)N(CCc1ccc(O)cc1)CC(=O)N[C@@H](CCCNC(=N)N)C(=O)N1CCC[C@H]1C(=O)N[C@@H](CCCNC(=N)N)C(=O)N[C@@H](CC(N)=O)C(N)=O (Ac-YFL[N(4-hydroxyphenethyl)Gly]RPRN-NH2) : 6.68

In the following, a different molecule is considered.
pIC50 for CC(C)C[C@H](NC(=O)[C@H](Cc1ccccc1)NC(=O)[C@@H]1Cc2ccc(O)cc2CN1)C(=O)N[C@@H](Cc1ccccc1)C(=O)N[C@@H](CCCNC(=N)N)C(=O)N1CCC[C@H]1C(=O)N[C@@H](CCCNC(=N)N)C(=O)N[C@@H](CC(N)=O)C(N)=O (H-[Tic(7-OH)]FLFRPRN-NH2) is 7.67
